# System: LYPLA1
# assayOverview: LYPLA1 inhibition and serine hydrolase selectivity, late-stage follow-up, fluorescence, gel-based ABPP, mouse proteome (AID 504520);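 further: soluble proteome from BW5147 murine T cells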
# details: FP-rhodamine fluorescence, inhibition, at 0.15 µM, stronger effect = higher value
outcomeMeasure: inhibition (%)
Give your result in % as a bare value.

[Q] Please give measured inhibition of the following entry: O=C(OC(c1ccccc1)c1cnn(C(=O)N2CCCCC2)n1)N1CCCCC1 (stereo not given)
[A] 100

[Q] Tell us which inhibition value is on record for O=C(N(c1ccccc1)c1ccccc1)n1ncc(C(O)(c2ccccc2)c2ccccc2)n1
[A] 0

[Q] Give a short answer stating reported inhibition for O=C(N(c1ccccc1)c1ccccc1)n1ncc(-c2ccc(Oc3ccccc3)cc2)n1 .
[A] 0

[Q] Indicate its recorded inhibition; the compound in question is O=C(N1CCc2ccccc2C1)n1ncc(C(O)(c2ccccc2)c2ccccc2)n1
[A] 0

[Q] Kindly indicate its recorded inhibition. Item: COC1CCN(C(=O)n2ncc(C(O)(c3ccccc3)c3ccccc3)n2)CC1
[A] 50

[Q] Give recorded inhibition. O=C(N(c1ccccc1)c1ccccc1)n1ncc(-c2cc(F)cc(F)c2)n1
[A] 0

[Q] Answer with the recorded inhibition for the compound listed here: COCC1CCCCN1C(=O)n1ncc(C(O)(c2ccccc2)c2ccccc2)n1 (stereo not given)
[A] 0

[Q] Please list inhibition recorded for the compound O=C(N1CCCCC1)n1ncc(C(O)c2ccccc2)n1 (stereo not given)
[A] 50

[Q] Identify the reported inhibition for the following entry. O=C(N(c1ccccc1)c1ccccc1)n1ncc(-c2ccc(-c3ccccc3)cc2)n1
[A] 0

[Q] Give inhibition for the following compound: O=C(N(c1ccccc1)c1ccc2ccccc2c1)n1ncc(C(O)(c2ccccc2)c2ccccc2)n1
[A] 0

* * *

Can you tell me inhibition for the items I'm about to list?
# System: ABHD11
# assayOverview: LYPLA1 inhibition and serine hydrolase selectivity, late-stage follow-up, fluorescence, gel-based ABPP, mouse proteome (AID 504520);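 further: soluble proteome from BW5147 murine T cells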
# details: FP-rhodamine fluorescence, inhibition, at 0.15 µM, stronger effect = higher value
Report the figure in % without appending any unit label.

[Q] Find the measured inhibition of COCC1CCCCN1C(=O)n1ncc(C(O)(c2ccccc2)c2ccccc2)n1 (stereo not given) and report it.
[A] 100

[Q] In one line, give reported inhibition of the entry O=C(OC(c1ccccc1)c1cnn(C(=O)N2CCCCC2)n1)N1CCCCC1 (stereo not given) .
[A] 100

[Q] Give the measured inhibition for COc1ccc2cc(-c3cnn(C(=O)N(c4ccccc4)c4ccccc4)n3)ccc2c1
[A] 0

[Q] Complete the entry with inhibition for O=C(N1CCCCC1)n1ncc(C(O)(c2ccccc2)c2ccccc2)n1
[A] 100

[Q] Please report inhibition for the following compound: O=C(N(c1ccccc1)c1ccccc1)n1ncc(-c2cc(F)cc(F)c2)n1
[A] 0

[Q] Identify measured inhibition associated with CC(C)CC(O)(CC(C)C)c1cnn(C(=O)N(c2ccccc2)c2ccccc2)n1
[A] 0

[Q] Give reported inhibition value for COCCCC1CCCCN1C(=O)n1ncc(C(O)(c2ccccc2)c2ccccc2)n1 (stereo not given)
[A] 50

[Q] Name the recorded inhibition of the compound listed here: COC1CCN(C(=O)n2ncc(C(O)(c3ccccc3)c3ccccc3)n2)CC1
[A] 100

[Q] Fill in inhibition for record O=C(N(c1ccccc1)c1ccccc1)n1ncc(-c2ccc(-c3ccccc3)cc2)n1
[A] 0

[Q] Please report the measured inhibition for CN(C(=O)n1ncc(C(O)(c2ccccc2)c2ccccc2)n1)c1ccccc1
[A] 0
